Sourced from patent US8242118B2

Biological target: Human CCR3 (Homo sapiens)
Construct: The cloned CCR3 cDNA was constructed with pcDNA3 vector and transfected into a IC562 cell line; expressed in transfected cells
Sequence (P51677 1-355): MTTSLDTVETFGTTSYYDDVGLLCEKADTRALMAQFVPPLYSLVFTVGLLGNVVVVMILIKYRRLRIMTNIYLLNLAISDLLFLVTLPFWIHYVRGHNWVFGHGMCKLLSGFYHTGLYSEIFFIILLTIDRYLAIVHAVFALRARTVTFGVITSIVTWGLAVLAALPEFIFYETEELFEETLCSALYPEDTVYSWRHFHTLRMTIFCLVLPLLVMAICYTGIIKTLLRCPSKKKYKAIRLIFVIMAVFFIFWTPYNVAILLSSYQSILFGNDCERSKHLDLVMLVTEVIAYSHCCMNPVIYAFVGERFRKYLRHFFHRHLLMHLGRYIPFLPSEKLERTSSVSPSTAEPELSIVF
Experiment: Calcium mobilization assay, eotaxin-stimulated
Format: cell-based
Details: human CCR3-transformed K562 cells, 10 nM eotaxin; compounds of about 40 to 90% purity; read-out: Activity grade Ca2+ (IC50 class)
Where a name gives a salt, the structure may show the parent alone.
property label: IC50

*Q* Fill in the blank: the reported IC50 of NCCNS(=O)(=O)c1cc([N+](=O)[O-])ccc1Oc1cc(Cl)cc(Cl)c1 is ____.
*A* < 1000 nM

*Q* Fill in the blank: the reported IC50 of O=C(O)c1cc(S(=O)(=O)N2CCNCC2)c(Oc2cc(Cl)cc(Cl)c2)cc1Cl is ____.
*A* 1000 to 10000 nM

*Q* Fill in the blank: the reported IC50 of Cl.O=[N+]([O-])c1ccc(Oc2cc(F)cc(F)c2)c(S(=O)(=O)N2CCNCC2)c1 is ____.
*A* < 1000 nM

*Q* Fill in the blank: the reported IC50 of Cc1cc(C)cc(Oc2ccc([N+](=O)[O-])cc2S(=O)(=O)N2CCN(CC3CCCO3)CC2)c1 (stereo not shown) is ____.
*A* < 1000 nM

*Q* Fill in the blank: the reported IC50 of Cc1cc(C)cc(Oc2ccc(C#N)cc2S(=O)(=O)N2CCNCC2)c1 [Example 9-1, hydrochloride] is ____.
*A* < 1000 nM

*Q* Fill in the blank: the reported IC50 of COc1ccccc1Nc1ccc([N+](=O)[O-])cc1S(=O)(=O)N1CCNCC1 is ____.
*A* < 1000 nM

*Q* Fill in the blank: the reported IC50 of Cc1ccc(Nc2ccc([N+](=O)[O-])cc2S(=O)(=O)N2CCNCC2)cc1 is ____.
*A* 1000 to 10000 nM

*Q* Fill in the blank: the reported IC50 of Cc1cc(C)cc(Oc2cc3cc[nH]c3cc2S(=O)(=O)N2CCNCC2)c1 [Example 11-1, trifluoroacetate] is ____.
*A* > 10000 nM

*Q* Fill in the blank: the reported IC50 of N#Cc1ccc(Oc2cc(Cl)cc(Cl)c2)c(S(=O)(=O)N2C[C@@H]3CCCN[C@@H]3C2)c1 is ____.
*A* < 1000 nM

*Q* Fill in the blank: the reported IC50 of Cc1cc(C)cc(Oc2cc(C)c([N+](=O)[O-])cc2S(=O)(=O)N2CCNCC2)c1.Cl is ____.
*A* 1000 to 10000 nM

*Q* Fill in the blank: the reported IC50 of O=[N+]([O-])c1ccc(Nc2cc(Cl)cc(Cl)c2)c(S(=O)(=O)N2CCNCC2)c1 is ____.
*A* < 1000 nM

*Q* Fill in the blank: the reported IC50 of Cc1cc(C)cc(Oc2ccc(C(=O)O)cc2S(=O)(=O)N2CCNCC2)c1 [Example 14-1, hydrochloride] is ____.
*A* < 1000 nM

*Q* Fill in the blank: the reported IC50 of Cl.O=[N+]([O-])c1ccc(Sc2cccc(Cl)c2)c(S(=O)(=O)N2CCNCC2)c1 is ____.
*A* < 1000 nM

*Q* Fill in the blank: the reported IC50 of Cc1ccc(Cl)c(Oc2ccc([N+](=O)[O-])cc2S(=O)(=O)N2CCNCC2)c1 is ____.
*A* < 1000 nM

*Q* Fill in the blank: the reported IC50 of Cc1cc(C)cc(Oc2ccc([N+](=O)[O-])cc2S(=O)(=O)N2CCC(N(C)C)CC2)c1.Cl is ____.
*A* < 1000 nM

*Q* Fill in the blank: the reported IC50 of Cl.O=[N+]([O-])c1ccc(Oc2cc(C(F)(F)F)cc(C(F)(F)F)c2)c(S(=O)(=O)N2CCNCC2)c1 is ____.
*A* < 1000 nM

*Q* Fill in the blank: the reported IC50 of Cc1cc(C)cc(Oc2ccc(NC(=O)CC(C)C)cc2S(=O)(=O)N2CCNCC2)c1 is ____.
*A* > 10000 nM

*Q* Fill in the blank: the reported IC50 of Cc1cc(C)cc(Oc2ccc(C(=O)NCCC(N)=O)cc2S(=O)(=O)N2CCNCC2)c1 [Example 22-2, hydrochloride] is ____.
*A* < 1000 nM

*Q* Fill in the blank: the reported IC50 of Cc1ccccc1Oc1ccc([N+](=O)[O-])cc1S(=O)(=O)N1CCNCC1.Cl is ____.
*A* 1000 to 10000 nM

*Q* Fill in the blank: the reported IC50 of O=[N+]([O-])c1ccc(Oc2cc(Cl)cc(Cl)c2)c(S(=O)(=O)NC2CCNCC2)c1 is ____.
*A* < 1000 nM

*Q* Fill in the blank: the reported IC50 of Cl.O=[N+]([O-])c1ccc(Oc2cc(Cl)cc(Cl)c2)c(S(=O)(=O)N2CCNCC2)c1 is ____.
*A* < 1000 nM

*Q* Fill in the blank: the reported IC50 of COc1ccc(Oc2cc(C)cc(C)c2)c(S(=O)(=O)N2CCNCC2)c1 [Example 6-2, hydrochloride] is ____.
*A* 1000 to 10000 nM

*Q* Fill in the blank: the reported IC50 of Cc1cc(C)cc(Oc2ccc([N+](=O)[O-])cc2S(=O)(=O)N(C)CCN(C)C)c1 is ____.
*A* < 1000 nM

*Q* Fill in the blank: the reported IC50 of O=[N+]([O-])c1ccc(Oc2cc(Cl)cc(Cl)c2)c(S(=O)(=O)N2CCC(N3CCCCC3)CC2)c1 is ____.
*A* < 1000 nM

*Q* Fill in the blank: the reported IC50 of Cl.N[C@@H]1CCN(S(=O)(=O)c2cc([N+](=O)[O-])ccc2Oc2cc(Cl)cc(Cl)c2)C1 is ____.
*A* < 1000 nM

*Q* Fill in the blank: the reported IC50 of COc1cc(C)cc(Oc2ccc([N+](=O)[O-])cc2S(=O)(=O)N2CCNCC2)c1.Cl is ____.
*A* < 1000 nM

*Q* Fill in the blank: the reported IC50 of Cc1cccc(Sc2ccc([N+](=O)[O-])cc2S(=O)(=O)N2CCNCC2)c1.Cl is ____.
*A* < 1000 nM

*Q* Fill in the blank: the reported IC50 of CC(C)(C)c1cc(Oc2ccc([N+](=O)[O-])cc2S(=O)(=O)N2CCNCC2)cc(C(C)(C)C)c1.Cl is ____.
*A* > 10000 nM

*Q* Fill in the blank: the reported IC50 of CCN1CCC(N(CC)S(=O)(=O)c2cc([N+](=O)[O-])ccc2Oc2cc(C)cc(C)c2)C1 (stereo not shown) is ____.
*A* < 1000 nM

*Q* Fill in the blank: the reported IC50 of Cc1cc(C)cc(Oc2cccc(F)c2S(=O)(=O)N2CCNCC2)c1.Cl is ____.
*A* < 1000 nM

*Q* Fill in the blank: the reported IC50 of O=[N+]([O-])c1ccc(Oc2cc(Cl)cc(Cl)c2)c(S(=O)(=O)NCCN2CCCCC2)c1 is ____.
*A* < 1000 nM

---

Molecular target: Human CCR3 (Homo sapiens, UniProt P51677)
Construct: The cloned CCR3 cDNA was constructed with pcDNA3 vector and transfected into a IC562 cell line; expressed in transfected cells
Assay: Calcium mobilization assay, eotaxin-stimulated
Assay type: cell-based
Conditions: human CCR3-transformed K562 cells, 10 nM eotaxin; compounds of about 40 to 90% purity; read-out: Activity grade Ca2+ (IC50 class)
property label: IC50

*Q* Lookup: IC50 / Human CCR3 (Homo sapiens, UniProt P51677) / Cl.O=[N+]([O-])c1ccc(Oc2ccc3c(c2)CCCC3)c(S(=O)(=O)N2CCNCC2)c1 [Example 1-72]
*A* < 1 µM

*Q* Lookup: IC50 / Human CCR3 (Homo sapiens, UniProt P51677) / Cc1cc(C)cc(Oc2ccc([N+](=O)[O-])cc2S(=O)(=O)N2CC(C)NC(C)C2)c1 (centres unmarked) [Example 1-92]
*A* < 1 µM

*Q* Lookup: IC50 / Human CCR3 (Homo sapiens, UniProt P51677) / Cc1cc(C)cc(Oc2ccccc2S(=O)(=O)N2CCNCC2)c1.Cl [Example 1-41]
*A* 1 to 10 µM

*Q* Lookup: IC50 / Human CCR3 (Homo sapiens, UniProt P51677) / CN(C)CCN(C)S(=O)(=O)c1cc([N+](=O)[O-])ccc1Sc1cc(Cl)cc(Cl)c1 [Example 2-23]
*A* < 1 µM

*Q* Lookup: IC50 / Human CCR3 (Homo sapiens, UniProt P51677) / Cl.Nc1cccc(Oc2ccc([N+](=O)[O-])cc2S(=O)(=O)N2CCNCC2)c1 [Example 1-67]
*A* < 1 µM

*Q* Lookup: IC50 / Human CCR3 (Homo sapiens, UniProt P51677) / Cc1cc(C)cc(Oc2ccc([N+](=O)[O-])cc2S(=O)(=O)N2CCCNCC2)c1 [Example 1-90]
*A* < 1 µM

*Q* Lookup: IC50 / Human CCR3 (Homo sapiens, UniProt P51677) / Cl.Cl.Cl.Nc1ccc(Oc2ccc([N+](=O)[O-])cc2S(=O)(=O)N2CCNCC2)cc1 [Example 1-13]
*A* > 10 µM

*Q* Lookup: IC50 / Human CCR3 (Homo sapiens, UniProt P51677) / CCN(CC)CCN1CCN(S(=O)(=O)c2cc([N+](=O)[O-])ccc2Oc2cc(Cl)cc(Cl)c2)CC1 [Example 4-30]
*A* < 1 µM
